Below is a list of entries, each paired with its recorded viability at 50 µM value.
Assay: Cytotoxicity against mouse RAW264.7 cells assessed as cell viability at 50 uM
Type: toxicity, cell-based
Details: read-out: Activity
ASSAY METRIC: viability at 50 µM (%)

1) C[C@@H]1[C@H]2C3=CC[C@@H]4[C@@]5(C)CC[C@H](O)[C@](C)(CO)[C@@H]5CC[C@@]4(C)[C@]3(C)CC[C@@]2(CO)[C@@H](O)C[C@H]1C(=O)O ... 117
2) C[C@H]1[C@H](C)CC[C@]2(CO)CC[C@]3(C)C(=CC[C@@H]4[C@@]5(C)CC[C@H](O)C(C)(C)[C@@H]5CC[C@]43C)[C@H]12 [UVAOL] ... 103
3) CC1(C)[C@@H](OC(=O)CCC(=O)O)CC[C@]2(C)[C@H]3C(=O)C=C4[C@@H]5C[C@@](C)(C(=O)O)CC[C@]5(C)CC[C@@]4(C)[C@]3(C)CC[C@@H]12 [CARBENOXOLONE] ... 88.5
4) C[C@@H]1[C@H]2C3=CC[C@@H]4[C@@]5(C)CC[C@H](O)[C@@](C)(CO)[C@@H]5CC[C@@]4(C)[C@]3(C)CC[C@@]2(CO)[C@@H](O)C[C@H]1C(=O)O ... 118
5) C[C@H]1[C@H](C(=O)O)[C@@H](O)C[C@]2(CO)CC[C@]3(C)C(=CC[C@@H]4[C@@]5(C)CC[C@H](O)[C@](C)(CO)[C@@H]5CC[C@]43C)[C@H]12 ... 112

----------
Assay: Cytotoxicity against mouse RAW264.7 cells assessed as cell viability at 50 uM
Type: toxicity, cell-based
Settings: read-out: Activity
Below, each entry is listed alongside its reported viability at 50 µM.
ASSAY METRIC: viability at 50 µM

1) C[C@H]1[C@H](C(=O)O)[C@@H](O)C[C@]2(CO)CC[C@]3(C)C(=CC[C@@H]4[C@@]5(C)CC[C@H](O)[C@@](C)(CO)[C@@H]5CC[C@]43C)[C@H]12 ... 124%
2) C[C@H]1[C@H](C)[C@@H](O)C[C@]2(CO)CC[C@]3(C)C(=CC[C@@H]4[C@@]5(C)CC[C@H](O)C(C)(C)[C@@H]5C[C@H](O)[C@]43C)[C@H]12 ... 94.2%
3) C[C@H]1[C@H](C)[C@@H](O)C[C@@]23CC[C@@]4(C)[C@@]5(C)[C@H](C=C[C@]4(OC2)[C@H]13)[C@@]1(C)CC[C@H](O)C(C)(C)[C@@H]1C[C@@H]5O ... 94.2%
